# assayNotes: inhibitors of hydroxyurea-induced Chk1 phosphorylation, primary screen, imaging, HeLa, phospho-Chk1 antibody, percent positive cells (AID 1186)
# measurementSetup: hydroxyurea-induced phospho-Chk1 immunofluorescence imaging, higher = more signal
The following compounds are listed with their measured z-score values.
// print number alone

Below: 3 compounds and their reported z-score.
INSERT INTO measurements (compound, value) VALUES
  ('COc1ccc([Si](C)(C)[C@@H]2[C@@H](CC(=O)N3CCC[C@H]3CO)O[C@]3(C(=O)N(Cc4cccc(N5C(=O)c6cccc7cccc5c67)c4)c4ccccc43)[C@H]2C)cc1', -0.798),
  ('C=CCNC(=O)[C@@H]1[C@H]2C(=O)O[C@H](c3ccccc3)[C@H](c3ccccc3)N2[C@H](c2ccc(OCCO)cc2)[C@@]12C(=O)Nc1ccc(C#CCNC(N)=O)cc12', 0.286),
  ('O=C1OCCC/C=C\[C@H]2OC34C=CCN(Cc5ccccc5)C(=O)[C@H]3N(CCO)C(=O)[C@@H]4C12 (some centres not stated)', -0.909);

Reported z-score for O=C1OC[C@@H](c2ccccc2)n2cc(/C=C/c3ccccc3)cc21 was -0.481

Reported z-score for CCOC(=O)C[C@H]1[C@H](OC(=O)c2cc3ccccc3oc2=O)[C@@H](NC(=O)c2ccc(-c3ccccc3)cc2)c2cc(OCCCO)ccc2N1C(=O)Cc1ccc(OC)cc1 was 0.105

Reported z-score for O=C1O[C@H](c2ccccc2)[C@H](c2ccccc2)N2[C@H]1[C@@H](C(=O)O)[C@]1(C(=O)Nc3ccc(C#CC4(O)CCCCCC4)cc31)[C@H]2c1ccccc1OCCO was 0.152

Reported z-score for CCOC(=O)C1=CC[C@@H](c2ccccc2)N(S(=O)(=O)c2ccc(C)cc2)[C@@H]1C#N was -1.95

----------
# assayNotes: P. aeruginosa biofilm formation inhibitors, primary screen, PAO1 strain, BacTiter-Glo luminescence, LB-PBS (AID 1144)
# measurementSetup: 12 h, higher = more signal
Threshold check on z-score: at or above -0.1 gives YES, strictly below gives NO.

These solved cases illustrate the format of a correct answer.
INSERT INTO results (molecule, label) VALUES
  ('CC[C@@H](O[Si](C#C[Si](C(C)C)(C(C)C)C(C)C)(C(C)C)C(C)C)c1cn(Cc2cccc(Cl)c2)nn1', 'NO'),
  ('CN1C2C=C(c3ccc(CO)cc3)C(C3C(=O)N(C(N)=O)C(=O)C32)C1C1CC1 (stereo unspecified)', 'NO'),
  ('COC(=O)[C@@]1(Cc2ccc(F)cc2)[C@H]2c3cc(C(=O)N(C)C)n(Cc4ccc(C(F)(F)F)nc4)c3C[C@H]2CN1C(=O)c1ccccc1', 'YES'),
  ('COc1cccc(C)c1NC(=O)O[C@H]1[C@H](OC(=O)Nc2ccccc2)[C@@H](OC(=O)Nc2ccccc2)[C@@H](OC)O[C@@H]1CO', 'NO');

Lookup: Textbook exercise: given the entry Cc1ccc(S(=O)(=O)N2[C@@H](c3ccccc3)C(C(=O)O)=C[C@H]2C(C)(C)C)cc1 , state whether its z-score is greater than or equal to -0.1.
Found: YES

Lookup: Textbook exercise: given the entry COc1ccc([Si](C)(C)[C@H]2[C@H](CC(=O)N(CCO)Cc3ccccc3)O[C@@]3(C(=O)N(Cc4cccc(N5CCCCC5=O)c4)c4ccccc43)[C@@H]2C)cc1 , state whether its z-score is greater than or equal to -0.1.
Found: NO
